Test system: Plasmodium berghei
assay_comment: Screen against P. berghei liver stage (PbLuc), transformed with Luciferase, at 10uM
Type: functional, HepG2
condition_details: tested at 10 uM
In all, about 69,000 compounds went through this assay and about 8,600 (12%) showed an effect of 50% or more. Only a selection was taken, and strong results are over-represented in it overall.
parameter_measured: INHIBITION (%)
# unit: % | format: bare number

Below: 4 compounds and their reported INHIBITION.
compound	tgt	value_unit	INHIBITION
CCC(NC(=O)Nc1ccc(OC)c(C)c1)c1ccncc1 (configuration not stated)	Plasmodium berghei	%	26.6
O=C1O[C@@H]2CN(Cc3ccncc3)C[C@@H]2N1CCCN1CCOCC1	Plasmodium berghei	%	-43.5
Cn1ccc(N2CCCC(NC(=O)c3ccsc3)C2=O)n1 (configuration not stated)	Plasmodium berghei	%	72.5
Cc1c(C(=O)NC2=NCCS2)cnn1-c1ccc(Br)cc1	Plasmodium berghei	%	-156

Q. Give the reported value of INHIBITION for this record: Cc1nc(CN2CCCC(NCc3csc(C(C)(C)C)n3)C2)no1 (configuration not stated)
A. 22.3

Q. For CN(C)C(=O)CN1CCC2(CCN(S(=O)(=O)C3CC3)CC2)C1=O , write its INHIBITION.
A. 32.1

Q. Please supply the value of reported INHIBITION for the item CCn1ccnc1CN1CCN(CCc2ccccn2)CC1C (configuration not stated)
A. 13.8

Q. // fetch INHIBITION given entry CCC=C(C)C(=O)N1CSCC1C(=O)NC1=NCCS1 (configuration not stated)
A. 7.58

Q. Determine its reported INHIBITION: O=C(CN1CCC(OCC2CCCO2)CC1)NCC(F)(F)F (configuration not stated)
A. 1.2

Q. Quick one: give measured INHIBITION for CC(C)C(=O)N1CCCC2(C1)CN(c1nncs1)CCO2 (configuration not stated)
A. 30.3

Q. Report measured INHIBITION; entry is COCCNC(=O)c1cc(-n2cccc2)ccc1Cl
A. 22.2

Q. Specify measured INHIBITION for O=C1O[C@@H]2CN(C3CCOCC3)C[C@@H]2N1CCCc1ccc(F)cc1 .
A. 33

Q. Report INHIBITION for Cc1ccc(NC2CCN(C(=O)c3ccco3)CC2)nn1
A. -17

====

Test system: Plasmodium berghei
assay_comment: Screen against P. berghei liver stage (PbLuc), transformed with Luciferase, at 10uM
Assay type: functional, HepG2
condition_details: tested at 10 uM
Hit rate of the full screen: of about 69,000 compounds, about 8,600 (12%) showed an effect of 50% or more. Shown is part of a subset that was picked to be rich in strong results.
INHIBITION values for the molecules below.
Numeric only. Scale: %

Q. Identify the reported INHIBITION for the following entry. CN1CC=C(c2noc(CCC(=O)N3CCc4ccccc4C3)n2)CC1
A. 77.2

Q. Give the value of INHIBITION reported for the following: Cc1ccccc1C(=O)N1CC(C(=O)NCC2CC2)C2(CCOCC2)C1 (stereo unspecified)
A. -41.4

====

Tested on: Plasmodium berghei
assay_comment: Screen against P. berghei liver stage (PbLuc), transformed with Luciferase, at 10uM
Type: functional, HepG2
condition_details: tested at 10 uM
Among all 69,000 compounds or so, about 8,600 (12%) showed an effect of 50% or more. The list comes from a sample in which strong results are over-represented; it also holds close analogues and randomly drawn compounds.
Rule for this label: fulfilled means INHIBITION is less than 40%; not fulfilled means INHIBITION is at least 40%.

molecule	class_name
CCc1c(C)[nH]c(C(C)(N)CC)nc1=O (configuration not stated)	fulfilled
Cc1nc(CN2CCC23CCN(Cc2ccoc2)CC3)cs1	fulfilled
N#CCCN(Cc1ccccn1)C(=O)c1cccc(CN2CCCC2)c1	not fulfilled
COc1ccc(C(=O)N2CCN(c3cc(CCN)nc(C)n3)CC2)cc1	fulfilled
COCc1ccc(C(=O)N(CCC#N)Cc2ccccn2)cc1	not fulfilled

Q. Would you kindly verify if INHIBITION of CCOc1cccc(C(=O)N(CCC#N)Cc2ccccn2)c1 is strictly less than 40%?
A. not fulfilled

Q. Please indicate whether the reported INHIBITION of Cc1nc(CN2CCC23CCN(C(=O)c2ccco2)CC3)cs1 is strictly below 40%.
A. not fulfilled

Q. Is INHIBITION strictly under 40% for the entry Cc1ccc(C(=O)N(CCC#N)Cc2ccccn2)cc1C ?
A. fulfilled

Q. Threshold test, INHIBITION < 40%: N#Cc1cnc(NCCCN2C(=O)COc3ccccc32)c(Cl)c1
A. fulfilled

Q. Please check: INHIBITION for CCc1nc(CN2CCCN(C(=O)Cc3cccs3)CC2)cs1 , strictly under 40% or not?
A. not fulfilled

Q. Hello, I'm reviewing records and need to know if INHIBITION of CCc1nc(CN2CCCN(C(=O)c3ccccc3)CC2)cs1 is below 40%. Could you check?
A. fulfilled

====

Test system: Plasmodium berghei
assay_comment: Screen against P. berghei liver stage (PbLuc), transformed with Luciferase, at 10uM
Assay type: functional, HepG2
condition_details: tested at 10 uM
The campaign covered roughly 69,000 compounds. About 8,600 (12%) showed an effect of 50% or more. What follows is part of a selection rich in strong results, with near analogues and random picks from the rest.
Hi! Could you tag entries with INHIBITION below 50% as 1.0, and those at or above as 0.0? Much appreciated.

compound	class_name
Cn1ncc2ccc(C3CCCN(Cc4cccs4)C3)nc21 (stereo unspecified)	1.0
CCC1(CC)Cc2ccccc2-c2nc(NCCO)[nH]c(=O)c21	0.0
CC(C)c1cc(C(=O)N[C@@H]2CC[C@@H](Oc3ccccc3)[C@@H]2O)on1	1.0
CC1(C)Cc2ccccc2-c2nc(NCCCO)[nH]c(=O)c21	1.0
CC1(C)Cc2ccccc2-c2nc(NCCO)[nH]c(=O)c21	1.0

Alright, here's another compound for you.
Q. Item Cc1cc(NCCO)nc(-c2ccccc2O)n1 : INHIBITION beneath 50%, strictly?
A. 1.0

====

Tested on: Plasmodium berghei
assay_comment: Screen against P. berghei liver stage (PbLuc), transformed with Luciferase, at 10uM
Assay type: functional, HepG2
condition_details: tested at 10 uM
Hit rate of the full screen: of about 69,000 compounds, about 8,600 (12%) showed an effect of 50% or more. For the sample, strong results were picked, then their nearest neighbours and some compounds at random.
parameter_measured: INHIBITION (%)
Reply with just the number (in %).

These recorded examples may help you get a feel for the data.
compound	tgt	INHIBITION / %
Cc1sc2nc(CCN)nc(N(C)CCCC3CCCO3)c2c1C (stereo unspecified)	Plasmodium berghei	43.2
CC(C)n1nc2c(cc1=O)CN(CC(=O)N(C)c1nccs1)CC2	Plasmodium berghei	17.1
Cc1c(CC(C#N)C(=O)Nc2cccc(O)c2)cnn1C (stereo unspecified)	Plasmodium berghei	20.4
CCC(C)N1C(=O)c2ccc(C(=O)NCCc3c[nH]cn3)cc2C1=O (stereo unspecified)	Plasmodium berghei	53.2
COCCCN1C(=O)c2ccc(C(=O)NCCc3c[nH]cn3)cc2C1=O	Plasmodium berghei	34.3

Q. Jot down INHIBITION (Plasmodium berghei) of CC(C)CN1C(=O)c2ccc(C(=O)NCCc3c[nH]cn3)cc2C1=O .
A. 24.5

Q. Write INHIBITION of CN(C)CC(=O)N1CCc2cccc(S(=O)(=O)N3CCOCC3)c2C1 ; system used: Plasmodium berghei
A. 21.2

====

# INHIBITION values compiled below
Test system: Plasmodium berghei
assay_comment: Screen against P. berghei liver stage (PbLuc), transformed with Luciferase, at 10uM
Assay type: functional, HepG2
condition_details: tested at 10 uM
Out of some 69,000 compounds screened, about 8,600 (12%) showed an effect of 50% or more. Only a selection was taken, and strong results are over-represented in it overall.
# output: bare number, implied unit %

molecule	INHIBITION (%)
O=C(NCc1cccnc1-n1cncn1)c1ccc2c(c1)CCO2	-0.113

# next molecule below
Q. Check Plasmodium berghei data and give INHIBITION for Cc1n[nH]c(C)c1NC(=O)NCc1cc[nH]n1 .
A. 36

====

System: Plasmodium berghei
assay_comment: Screen against P. berghei liver stage (PbLuc), transformed with Luciferase, at 10uM
Assay type: functional, HepG2
condition_details: tested at 10 uM
About 8,600 (12%) of roughly 69,000 compounds showed an effect of 50% or more. The sample holds strong results, similar compounds and a random draw of the others, so the mix is not that of the screen.
compounds and their reported INHIBITION

Known results for compounds:
compound	INHIBITION
CC1(c2ncc(CN3CCOCC3)cn2)CCCCO1 (configuration not stated)	18.04%
CCOCC(=O)NCC1CCN(Cc2ccsc2)CC1	60%
COc1ccc2[nH]cc(C(=O)N3C[C@@H](O)[C@H](N4CCCC4)C3)c2c1	11.8%
Cc1cc(C(=O)N(C)CCCn2cccn2)nc(N)n1	64.1%
CC(=O)N1CCCn2nc(CNS(=O)(=O)N3CCC(C)CC3)cc2C1	15.7%
Cc1nn(C)c(C)c1-c1nccnc1CC1CCNCC1	-17.9%
O=C(COc1ccccc1)NCC1CCN(Cc2ccsc2)CC1	27%
O=C(CCCN1CCOCC1)N1CCCC(CO)(CC2CC2)C1 (configuration not stated)	-4.21%
O=C(CCc1ccccc1)NCC1CCN(Cc2ccsc2)CC1	-11.8%
Cc1cc(N(C)CCCn2cccn2)nc(-c2cccnc2)n1	-37.2%

Q. Answer with reported INHIBITION of COCC(=O)NCC1CCN(Cc2ccsc2)CC1
A. -6.67%

Q. State its INHIBITION: O=C(CCc1ccccc1)NCC1CCN(Cc2ccccc2)CC1
A. 54.2%
